Hello, the source for this data is patent US20140289906A1, in case you need it.

assay notes: 14C assay: 14CO2 capture from [14C]-carboxyl-labeled dicamba with IPTG-induced recombinant E. coli cells
condition parameters: IPTG-induced recombinant E. coli cells; 14CO2 from [14C]-carboxyl-labeled dicamba
reported metric: Dicamba Decarboxylase Activity

molecule	meas value
62 (protein, Bacillus thuringiensis serovar pulsiensis) MAVGGKNFRDVTDQVWCPKKRIEDMDREGVDIQVLSPIPVTFSYWAKPEEAESMARIQNDFIAETVLAYPDRFVGLGTVPMQDGETAIREMERCITELNLHGIEIGTNVNGKNLDDPSFIEFFRMAEKWQVPIFIHPWETLGRDRMPHHNFMYTVGMPSETALAAATLIWSGIMEKFPRLKVCFAHGGGSFPYILPRLDQGWKVWPHLRLTTHPPSYYAKKFYFDSLNYDPINLKYMIERFGHEKIFMGSDYPFLLREVDPGKVIDETASLSEEQKAAMLGGNAAEFLNIDIKKRGVAYAESTNT	No
